- Test: yeast display, Sf9 membrane polyspecificity reagent, FACS + sequencing; frameworks hold sequencing errors
Measured attribute: polyreactivity (PSR sort gate)

Illustrative cases are given below, each with its answer.
Sequence content	polyreactivity (PSR sort gate)
QVQLVESGGGLVQAGGSLRLSCAASGYTFGGNAMGWYRQAPGKERELVAAISNTGGRTNYADSVKGRFTISRDNAKNTVYLQMNSLKPEDTAVSYCAKSVYYRDRYGGDYWGQGTQVTVSS	low polyreactivity
QVQLVASGGGLVQAGGSLRLSCAASGSIFRFNPMGWSRHEPGKERELVAAISQSGSSTYYADSLKGRFTISRDNAKNTVYLQMNSLKPEDTAVYYCNVYTYQPYRMDLWRQGTQVTVSS	high polyreactivity
QVQLVESGGGLVHAGGSLRLSCAASGNIITYNAMALYRQAPGKERELVAAITRGGNTNYADSVKGRFTISRDNAKNTVYLQMNSLKPEDTAVYFCAADRYVQLLGYFFEFDYWGQGSQVTVSS	low polyreactivity
QVQLVESGGGLVQAGGSLRLSCAASGSIFRYYDMGWYRQAPGKERELVAAISTSGVRTNYADSVKGRFTISRDNAKNTVYLQMNSLKPEDTAVYYCAARSQIYYRYRSYGYWGQGTQVTVSS	high polyreactivity
QVQLVESGGGLVQAGGSLRLSCAASGSIYGYTMGWYRPAPGKERELVAAINRRADRTYYADSVKGRYTISRDNAKNTVYLQMNSLKPEDTAVYYCNKGGWYTLGYWGQGTQVTVSS	high polyreactivity
QVQLVESGGGLVQAGGSLRLSCAASGFTFDIYAMGWYRQAPGKEWELVAAITSGGITNYADSVKGRFTISRDNAKNTVYLQMNSLKPEDTAVYYCAADEYLGFYVSHTDWTKYDYWGQGTQVTVSS	low polyreactivity

QVQLVESGGGLVQSGGSLRLSCAASGFTFYRYTMGWYRQAPGKERELVAISSDGSTNYADSVKGRFTISRDNAKNTVYLQMNSLKPEDTAVYYCNAVYYNWIGFDYWGQGTQVTVSS yielded polyreactivity (PSR sort gate) of low polyreactivity

QVQLVESGGGLVQAGGSLRLICAASGRTFPGYGMGWYRQAPGKERELVAVITSNGGITYYADSVKGRFTISRDNAKNTVYLQMNSLKPEDTAVYYCAAYEIYNEFDSWGQGTQVTVSS yielded polyreactivity (PSR sort gate) of low polyreactivity

QVQLVESGGGLVQAGGSLRLSCAASGFIFYRNTMGWYRQAPGKEREFVAAIRWRGGSSYYADSVKGRFTISRDNAKNTVYLQMNSLKPEDTAVYYCAADTRPGYSGFEYWGQGTQVTVSS yielded polyreactivity (PSR sort gate) of high polyreactivity

QVQLVESGGGLVQAGGSLRIICAASGYIFVRNAMGWYRQAPGKERELVAAISCSGGSTYYADSVKGRFTISRDNAKNTVFLQMNSLKPEDTAVYSCAADYATVTWRGIAYDYWGQGTQVTVSS yielded polyreactivity (PSR sort gate) of low polyreactivity

QVQLVESGGGLVQAGGSLRLSCAASGRIYPAYAMGWSRQAPGKERELVASIRRGGITYADSVKGRFTISRDNAKNTVYLQMNSLKPEDTAVYYCNADYRGWGYHMDYWGQGTQVTVSS yielded polyreactivity (PSR sort gate) of low polyreactivity

QVQLVESGGGLVQAGGSLRLSCADSGSIFQYYVRGCYRQAPGKERELVAAIRRSGTTYYADSVKGRFTISRDNAKNTVYLQMNSLKTEDTAVDYCNKVRCQEPSNYDYWVQGTQVTVSS yielded polyreactivity (PSR sort gate) of low polyreactivity
